Origin of values: the kinase profiling compilation of Christmann-Franck et al. (2016)

- System: ABL1 (human), P00519 [E255K]
- Sequence (P00519 whole entry E255K, looked up): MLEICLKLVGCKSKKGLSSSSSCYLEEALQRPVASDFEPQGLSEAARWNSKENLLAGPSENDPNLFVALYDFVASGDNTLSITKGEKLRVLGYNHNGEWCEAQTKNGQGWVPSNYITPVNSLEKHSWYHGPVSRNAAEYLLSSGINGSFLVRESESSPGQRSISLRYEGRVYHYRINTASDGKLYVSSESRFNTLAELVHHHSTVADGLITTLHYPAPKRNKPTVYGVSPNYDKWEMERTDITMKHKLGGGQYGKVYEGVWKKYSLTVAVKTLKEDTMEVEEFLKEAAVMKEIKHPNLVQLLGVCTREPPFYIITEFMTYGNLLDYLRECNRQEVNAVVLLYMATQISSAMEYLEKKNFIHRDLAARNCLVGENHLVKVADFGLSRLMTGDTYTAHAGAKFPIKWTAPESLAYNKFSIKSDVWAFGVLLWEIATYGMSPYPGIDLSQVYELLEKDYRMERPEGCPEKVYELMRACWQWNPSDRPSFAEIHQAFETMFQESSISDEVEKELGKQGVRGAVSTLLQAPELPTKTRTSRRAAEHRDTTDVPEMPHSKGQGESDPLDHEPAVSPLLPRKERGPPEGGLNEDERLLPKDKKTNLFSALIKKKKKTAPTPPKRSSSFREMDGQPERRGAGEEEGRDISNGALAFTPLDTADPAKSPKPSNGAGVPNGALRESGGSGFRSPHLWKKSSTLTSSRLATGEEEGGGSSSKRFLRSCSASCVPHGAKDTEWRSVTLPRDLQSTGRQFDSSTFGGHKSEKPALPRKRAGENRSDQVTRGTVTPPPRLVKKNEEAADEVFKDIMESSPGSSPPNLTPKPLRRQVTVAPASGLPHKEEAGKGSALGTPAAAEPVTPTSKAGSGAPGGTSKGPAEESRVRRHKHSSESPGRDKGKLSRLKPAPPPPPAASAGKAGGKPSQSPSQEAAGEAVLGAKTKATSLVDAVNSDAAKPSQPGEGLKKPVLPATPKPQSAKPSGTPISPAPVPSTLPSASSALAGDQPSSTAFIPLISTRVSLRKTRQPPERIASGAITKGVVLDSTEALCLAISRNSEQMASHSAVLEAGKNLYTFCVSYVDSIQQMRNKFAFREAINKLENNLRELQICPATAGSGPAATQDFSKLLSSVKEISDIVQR
- test description: KINOMEscan competition binding
- protocol conditions: compound 10.0 µM
Recorded measurements of kinase still bound, per cent of control, one per entry
Give the number; % is assumed, so skip it.

Would you please look over these solved cases?
[
  {
    "compound string": "COc1cc(N2CCN(C)CC2)ccc1Nc1ncc2c(n1)Nc1ccccc1NC2=O",
    "measurement label": "kinase still bound, per cent of control",
    "result value": 19
  },
  {
    "compound string": "COc1cc(N2CCN(C)CC2)ccc1Nc1ncc2c(n1)N(C)c1sccc1C(=O)N2C",
    "measurement label": "kinase still bound, per cent of control",
    "result value": 85
  },
  {
    "compound string": "COc1cc(N2CCN(C)CC2)ccc1Nc1ncc2c(n1)N(C)c1ccccc1N(C)C2=O",
    "measurement label": "kinase still bound, per cent of control",
    "result value": 100
  },
  {
    "compound string": "COc1cc(N2CCC(O)CC2)ccc1Nc1ncc2c(n1)N1CCc3cccc(c31)C(=O)N2C",
    "measurement label": "kinase still bound, per cent of control",
    "result value": 90
  },
  {
    "compound string": "CN1C(=O)c2ccccc2N(C)c2nc(Nc3ccc(N4CCC(O)CC4)cc3)ncc21",
    "measurement label": "kinase still bound, per cent of control",
    "result value": 0.6
  },
  {
    "compound string": "CN1CCN(c2ccc(C(=O)Nc3ncc4c(n3)N(C)c3ccccc3C(=O)N4C)cc2)CC1",
    "measurement label": "kinase still bound, per cent of control",
    "result value": 100
  },
  {
    "compound string": "O=C1NC(=O)/C(=C/c2c[nH]c(=O)c(-c3ccc(N4CCNCC4)nc3)c2)S1",
    "measurement label": "kinase still bound, per cent of control",
    "result value": 94
  }
]

For the next question, use this compound.
Ask: Write kinase still bound, per cent of control of "CN1C(=O)c2ccccc2N(C)c2nc(NS(=O)(=O)c3ccc(N)cc3)ncc21" ; system used: ABL1 (human), P00519 [E255K]
Result: 100

---

- target desc: SRC (human)
- test description: KINOMEscan competition binding
- protocol conditions: compound 10.0 µM
measurement label: kinase still bound, per cent of control (%)
Give the number; % is assumed, so skip it.

[
  {
    "compound string": "COc1cc(N2CCC(O)CC2)ccc1Nc1ncc2c(n1)N1CCc3cccc(c31)C(=O)N2C",
    "kinase still bound, per cent of control (%)": 100
  },
  {
    "compound string": "COc1cc(N2CCN(C)CC2)ccc1Nc1ncc2c(n1)N(C)c1ccccc1N(C)C2=O",
    "kinase still bound, per cent of control (%)": 88
  },
  {
    "compound string": "COc1cc(N2CCN(C)CC2)ccc1Nc1ncc2c(n1)N(C)c1sccc1C(=O)N2C",
    "kinase still bound, per cent of control (%)": 97
  },
  {
    "compound string": "CN1CCN(c2ccc(C(=O)Nc3ncc4c(n3)N(C)c3ccccc3C(=O)N4C)cc2)CC1",
    "kinase still bound, per cent of control (%)": 100
  },
  {
    "compound string": "CN1C(=O)c2ccccc2N(C)c2nc(Nc3ccc(N4CCC(O)CC4)cc3)ncc21",
    "kinase still bound, per cent of control (%)": 21
  },
  {
    "compound string": "COc1cc(N2CCN(C)CC2)ccc1Nc1ncc2c(n1)Nc1ccccc1NC2=O",
    "kinase still bound, per cent of control (%)": 48
  },
  {
    "compound string": "CN1C(=O)c2ccccc2N(C)c2nc(NS(=O)(=O)c3ccc(N)cc3)ncc21",
    "kinase still bound, per cent of control (%)": 100
  }
]

For the next question, use this compound.
Ask: Give the reported kinase still bound, per cent of control for this compound. "O=C1NC(=O)/C(=C/c2c[nH]c(=O)c(-c3ccc(N4CCNCC4)nc3)c2)S1"
Result: 100
